Values compiled from patent EP0401715B1.

Biological target: cholinesterase (Rattus norvegicus, UniProt P37136)
Construct: The S₁ fraction of a cerebral cortex homogenate from male Wistar rats was used as the cholinesterase source; from tissue; host or cells: S1 fraction of cerebral cortex homogenate, male Wistar rats
Sequence (P37136 32-614): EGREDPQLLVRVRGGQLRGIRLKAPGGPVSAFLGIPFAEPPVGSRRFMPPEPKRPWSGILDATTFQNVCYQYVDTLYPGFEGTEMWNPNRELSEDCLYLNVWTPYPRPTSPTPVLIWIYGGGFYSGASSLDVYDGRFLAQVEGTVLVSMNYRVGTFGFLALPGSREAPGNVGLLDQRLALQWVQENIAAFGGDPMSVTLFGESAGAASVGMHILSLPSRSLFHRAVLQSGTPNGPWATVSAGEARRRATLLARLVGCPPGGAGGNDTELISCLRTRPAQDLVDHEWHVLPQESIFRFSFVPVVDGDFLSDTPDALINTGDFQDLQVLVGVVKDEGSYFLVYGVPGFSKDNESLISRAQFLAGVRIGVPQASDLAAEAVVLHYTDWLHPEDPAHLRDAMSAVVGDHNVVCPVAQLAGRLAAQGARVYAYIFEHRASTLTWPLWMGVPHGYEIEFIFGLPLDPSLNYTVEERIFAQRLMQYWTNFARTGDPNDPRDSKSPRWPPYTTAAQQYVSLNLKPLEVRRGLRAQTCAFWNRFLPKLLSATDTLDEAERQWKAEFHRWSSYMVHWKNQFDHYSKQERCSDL
Experiment: Anticholinesterase activity using (acetyl-[³H])-acetylcholine as substrate
Assay type: biochemical, male Wistar rats
pIC50: −log10 of the molar value. Where a name gives a salt, the structure may show the parent alone.
QUANTITY MEASURED: pIC50

INSERT INTO results (compound, system_name, quantity_measured, reported_value) VALUES
  ('CCN(CCCCCC(=O)c1ccc(N2CCCC2)cc1)Cc1ccccc1 [Example 4-2, fumarate]', 'cholinesterase (Rattus norvegicus, UniProt P37136)', 'pIC50', 6.51);
